Recorded values, source PubChem BioAssay (EPA / NIEHS).

molecular target: Aryl hydrocarbon receptor (Homo sapiens) (UniProt P35869); assay: ATG_Ahr_CIS: Attagene CIS-FACTORIAL HepG2 Assay for human Aryl Hydrocarbon Receptor (Ahr) (AID 2282930); settings: HepG2 AhR cis-factorial reporter transcription; actives raise or lower the signal
Sequence (P35869 whole entry, looked up): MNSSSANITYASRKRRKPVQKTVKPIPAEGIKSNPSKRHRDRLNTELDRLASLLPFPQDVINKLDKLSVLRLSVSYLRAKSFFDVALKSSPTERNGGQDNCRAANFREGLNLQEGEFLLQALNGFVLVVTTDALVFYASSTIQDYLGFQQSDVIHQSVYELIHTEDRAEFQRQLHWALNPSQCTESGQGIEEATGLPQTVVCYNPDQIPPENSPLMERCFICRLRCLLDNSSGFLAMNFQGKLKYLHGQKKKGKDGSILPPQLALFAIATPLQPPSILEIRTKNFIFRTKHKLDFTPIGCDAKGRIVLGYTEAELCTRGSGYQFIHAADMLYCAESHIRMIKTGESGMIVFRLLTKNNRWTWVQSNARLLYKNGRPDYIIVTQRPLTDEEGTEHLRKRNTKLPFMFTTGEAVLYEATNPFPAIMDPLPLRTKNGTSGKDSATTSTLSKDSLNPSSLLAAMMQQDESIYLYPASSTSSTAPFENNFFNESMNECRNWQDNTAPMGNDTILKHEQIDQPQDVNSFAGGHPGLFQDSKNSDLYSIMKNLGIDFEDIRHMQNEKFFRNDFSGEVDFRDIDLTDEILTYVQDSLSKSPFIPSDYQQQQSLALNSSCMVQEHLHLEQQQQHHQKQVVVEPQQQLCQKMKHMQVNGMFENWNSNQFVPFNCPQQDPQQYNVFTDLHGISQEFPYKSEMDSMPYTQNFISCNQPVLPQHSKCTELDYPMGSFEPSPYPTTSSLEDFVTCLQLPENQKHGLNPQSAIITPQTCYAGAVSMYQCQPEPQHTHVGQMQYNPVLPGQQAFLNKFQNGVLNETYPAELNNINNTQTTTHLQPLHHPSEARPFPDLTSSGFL
Calls of active or inactive are those of the source. The calls were made as follows: active = hit-call score of the fitted dose curve at least 0.9, where 1 is the maximum; inactive = score below 0.9.
Pick one: active, inactive

Please review the entries below; each comes with its answer.
{"columns": ["line notation", "tested on", "group label"],
 "data": [
  ["Nc1ccc(Cl)cc1C(=O)c1ccccc1", "Aryl hydrocarbon receptor (Homo sapiens) (UniProt P35869)", "inactive"],
  ["CCOP(OCC)OCC", "Aryl hydrocarbon receptor (Homo sapiens) (UniProt P35869)", "inactive"],
  ["N#CN=C(N)N", "Aryl hydrocarbon receptor (Homo sapiens) (UniProt P35869)", "inactive"]
]}

Field: outcome | Entry: COP(=S)(OC)Oc1ccc(Sc2ccc(OP(=S)(OC)OC)cc2)cc1 inactive

Field: outcome | Entry: C=CC(=O)OCCCCCC(C)C inactive

Field: outcome | Entry: O=C(OC1CCCCC1)c1ccccc1C(=O)OC1CCCCC1 active

Field: outcome | Entry: CCOP(=S)(OCC)Oc1nc(Cl)c(Cl)cc1Cl active

###

experiment: ATG_GRE_CIS: Attagene CIS-FACTORIAL HepG2 Assay for human Glucocorticoid Response Elements (GRE) (AID 2282947); details: HepG2 GRE cis-reporter, Attagene multiplex mRNA; actives raise or lower the signal
Calls of active or inactive are those of the source. Rule for the calls: active = hit-call score of the fitted dose curve at least 0.9, where 1 is the maximum; inactive = score below 0.9.
property label: AC50

{"columns": ["compound", "AC50"],
 "data": [
  ["CCNc1nc(NC(C)(C)C)nc(SC)n1", "inactive"],
  ["COC(=O)Cc1ccccc1", "inactive"],
  ["ClCc1cccnc1", "72.5 µM (active)"],
  ["O=C1C(Cl)=C(Cl)C(=O)c2ccccc21", "inactive"],
  ["CC(Br)C(=O)O (stereo unspecified)", "inactive"]
]}

Specify measured AC50 for COP(=O)(OC)OC . inactive

Specify measured AC50 for COc1ccc(OC)c(C=O)c1 . inactive

Specify measured AC50 for N#CCc1ccc(Cl)cc1 . inactive

Specify measured AC50 for O=P(O)(O)CN(CP(=O)(O)O)CP(=O)(O)O . inactive

###

test: BSK_BE3C_SRB: Viability Assessment in the BioMAP Diversity Plus: BE3C Assay (AID 2283028); settings: primary human bronchial epithelial cells;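 also: measured 24 h after chemical dosing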
Activity calls are given as the source filed them. Rule for the calls: active = hit-call score of the fitted dose curve at least 0.9, where 1 is the maximum; inactive = score below 0.9.
Pick one: label 1 = active, label 0 = inactive

Please review the entries below; each comes with its answer.
{"columns": ["compound", "group label"],
 "data": [
  ["O=C(O)CCC(F)(C(F)(F)F)C(F)(F)F", "label 0"],
  ["Cn1sc(Cl)cc1=O", "label 0"],
  ["Cc1ccccc1N", "label 0"],
  ["O=[N+]([O-])c1ccc2c3c(cccc13)CC2", "label 0"],
  ["CC(=O)OC(c1ccccc1)C(Cl)(Cl)Cl (stereo not drawn)", "label 0"]
]}

Field: outcome | Entry: C=C(C)C(=O)[O][Sn]([CH2]CCC)([CH2]CCC)[CH2]CCC label 1

Field: outcome | Entry: CCOP(=S)(OCC)SCSP(=S)(OCC)OCC label 0

Field: outcome | Entry: CC(=O)C(Cl)C(=O)N(C)C (stereo not drawn) label 0

###

read-out: Tumor necrosis factor (Homo sapiens) (UniProt P01375); experiment: BSK_LPS_TNFa: BioMAP Diversity Plus: LPS Assay for Tumour Necrosis Factor alpha (TNFa) Biomarker Activity (AID 2283085); settings: primary human HUVEC with PBMC; actives raise or lower the signal
Sequence (P01375 whole entry, looked up): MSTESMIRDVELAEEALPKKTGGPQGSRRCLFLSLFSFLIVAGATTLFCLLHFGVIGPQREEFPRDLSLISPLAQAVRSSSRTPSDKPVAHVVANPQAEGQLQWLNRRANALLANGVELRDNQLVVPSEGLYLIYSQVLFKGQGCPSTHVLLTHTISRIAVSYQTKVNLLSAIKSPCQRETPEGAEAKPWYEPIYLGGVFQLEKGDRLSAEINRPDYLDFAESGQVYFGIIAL
The source made the active and inactive calls. The calls were made as follows: active = hit-call score of the fitted dose curve at least 0.9, where 1 is the maximum; inactive = score below 0.9.
Pick one: 1 (yes) = active, 0 (no) = inactive

Field: outcome | Entry: CCOP(=S)(OCC)SCCS(=O)(=O)CC 0 (no)

###

assay: ATG_Oct_MLP_CIS: Attagene CIS-FACTORIAL HepG2 Assay for human Octamer-Binding Transcription Factor (Oct) (AID 2282993); details: HepG2 Attagene cis-factorial Oct reporter, mRNA; actives raise or lower the signal
Active and inactive are the calls of the source. Rule for the calls: active = hit-call score of the fitted dose curve at least 0.9, where 1 is the maximum; inactive = score below 0.9.
Pick one: active, inactive

{"columns": ["line notation", "group label"],
 "data": [
  ["COC[C@H](C)N(C(=O)CCl)c1c(C)csc1C", "inactive"],
  ["Clc1nc(Cl)nc(Cl)n1", "inactive"]
]}

# evaluate next
Field: outcome | Entry: Oc1ccc(-c2ccccc2)cc1 active

###

experiment: ATG_EGR_CIS: Attagene CIS-FACTORIAL HepG2 Assay for human Early Growth Response 1 (EGR1) (AID 2282938); conditions: HepG2 Attagene CIS-FACTORIAL EGR reporter mRNA; actives raise or lower the signal
Active and inactive are the calls of the source. Rule for the calls: active = hit-call score of the fitted dose curve at least 0.9, where 1 is the maximum; inactive = score below 0.9.
Pick one: TRUE (active), FALSE (inactive)

Please review the entries below; each comes with its answer.
{"columns": ["compound", "group label"],
 "data": [
  ["O=S(=O)(c1ccc(Cl)cc1)c1ccc(Cl)cc1", "FALSE"],
  ["OCC(O)CCl (stereo not drawn)", "FALSE"],
  ["C=C(C)C(=O)[O][Sn]([CH2]CCC)([CH2]CCC)[CH2]CCC", "FALSE"],
  ["CC(Br)C(=O)O (stereo not drawn)", "FALSE"]
]}

Field: outcome | Entry: N#Cc1ccccn1 FALSE

Field: outcome | Entry: O=C(c1ccccc1)C(Cl)Cl TRUE

Field: outcome | Entry: O=C(NCO)NCO FALSE

Field: outcome | Entry: CC(=[OH+])/C=C(/C)[O-].CC(=[OH+])/C=C(/C)[O-].CC(=[OH+])/C=C(/C)[O-].[Al] FALSE

Field: outcome | Entry: CCCCOCCOC(C)=O FALSE

Field: outcome | Entry: Clc1ccc(C2(Cn3cncn3)CC(Br)CO2)c(Cl)c1 (stereo not drawn) FALSE

###

read-out: Vascular cell adhesion molecule 1 (VCAM1), VCAM1 (gene 7412); experiment: BSK_LPS_VCAM1: BioMAP Diversity Plus: LPS Assay for Vascular cell adhesion molecule 1 (VCAM1) Biomarker Activity (AID 2283086); conditions: primary human HUVEC with PBMC; actives raise or lower the signal
Active and inactive are the calls of the source. How the source made its calls: active means hit-call score of the fitted dose curve at least 0.9, where 1 is the maximum; inactive means score below 0.9.
Pick one: active, inactive

Field: outcome | Entry: COc1cc(OC)nc(NC(=O)NS(=O)(=O)c2ncccc2C(=O)N(C)C)n1 inactive

Field: outcome | Entry: CCCCCCCCc1ccc(O)cc1 active

Field: outcome | Entry: O=S(=O)(c1ccc(Cl)cc1)c1ccc(Cl)cc1 inactive

Field: outcome | Entry: COC[C@H](C)N(C(=O)CCl)c1c(C)csc1C inactive

###

target: X-box-binding protein 1 (Homo sapiens); experiment: ATG_Xbp1_CIS: Attagene CIS-FACTORIAL HepG2 Assay for human X-box Binding Protein 1 (XBP1) (AID 2282972); details: HepG2 XBP1 cis-element reporter, Attagene multiplex; actives raise or lower the signal
Activity calls are given as the source filed them. The calls were made as follows: active = hit-call score of the fitted dose curve at least 0.9, where 1 is the maximum; inactive = score below 0.9.
Pick one: y = active, n = inactive

Please review the entries below; each comes with its answer.
{"columns": ["compound", "group label"],
 "data": [
  ["ClC1=C(Cl)[C@]2(Cl)[C@H]3[C@H]([C@H]4C=C[C@H]3C4)[C@@]1(Cl)C2(Cl)Cl", "n"],
  ["CCC(=O)C(CC(C)N(C)C)(c1ccccc1)c1ccccc1 (centres undefined)", "n"],
  ["CC(=[OH+])/C=C(/C)[O-].CC(=[OH+])/C=C(/C)[O-].CC(=[OH+])/C=C(/C)[O-].[Fe]", "n"],
  ["COS(=O)(=O)c1ccc(C)cc1", "n"],
  ["CCOC(=O)Nc1cccc(OC(=O)Nc2ccccc2)c1", "n"],
  ["c1cc[c]([Hg][c]2ccccc2)cc1", "y"],
  ["O=C(Nc1ccc2[nH]ccc2c1)c1cc2cc(F)ccc2n1Cc1cccc(F)c1", "y"],
  ["O=C(c1ccccc1)C(Cl)Cl", "y"]
]}

Field: outcome | Entry: CC(C)c1ccc(CO)cc1 n

Field: outcome | Entry: Cc1ccccc1C(=O)Nc1cccc(OC(C)C)c1 n

Field: outcome | Entry: C=C(C)C#N n

Field: outcome | Entry: COP(=O)(OC)OC n

Field: outcome | Entry: CCc1ccccc1C n

Field: outcome | Entry: Clc1ccc(C2(Cn3cncn3)CC(Br)CO2)c(Cl)c1 (centres undefined) n

Field: outcome | Entry: CC(=O)[O][Hg][c]1ccccc1 y

Field: outcome | Entry: CN(C)P(=O)(N(C)C)N(C)C n

Field: outcome | Entry: N#CN=C(N)N n

Field: outcome | Entry: CC1CN1P(=O)(N1CC1C)N1CC1C (centres undefined) n

Field: outcome | Entry: CCC(C)(C)c1ccc(O)c(C(C)(C)CC)c1 n

Field: outcome | Entry: CC(=O)C=C(C)C n

###

test: ATG_VDRE_CIS: Attagene CIS-FACTORIAL HepG2 Assay for human Vitamin D Receptor Element (VDRE) (AID 2282968); conditions: HepG2 VDRE cis-reporter transcription, actives raise or lower the signal
The source made the active and inactive calls. How the source made its calls: active means hit-call score of the fitted dose curve at least 0.9, where 1 is the maximum; inactive means score below 0.9.
Pick one: 1 (yes) for active, 0 (no) for inactive

Please review the entries below; each comes with its answer.
{"columns": ["compound", "group label"],
 "data": [
  ["ClC1(Cl)C2(Cl)C3(Cl)C4(Cl)C(Cl)(Cl)C5(Cl)C3(Cl)C1(Cl)C5(Cl)C24Cl (stereo not drawn)", "0 (no)"],
  ["CC(C)c1ccc(CO)cc1", "1 (yes)"],
  ["C=CC(=O)OCCCCCC(C)C", "0 (no)"],
  ["CCC(C)c1cccc(C(C)CC)c1O (stereo not drawn)", "0 (no)"],
  ["CC(C)(c1ccccc1)c1ccc(O)c(C(C)(C)c2ccccc2)c1", "1 (yes)"]
]}

Field: outcome | Entry: O=[N+]([O-])c1ccc2c3c(cccc13)CC2 1 (yes)

Field: outcome | Entry: [O-][Cl+2]([O-])O 0 (no)

Field: outcome | Entry: COc1cc2c(cc1OC)[C@@]13CCN4CC5=CCO[C@H]6CC(=O)N2[C@H]1[C@H]6[C@H]5C[C@H]43 0 (no)

Field: outcome | Entry: ClC1=C(Cl)[C@]2(Cl)[C@H]3[C@H]([C@H]4C=C[C@H]3C4)[C@@]1(Cl)C2(Cl)Cl 0 (no)

Field: outcome | Entry: CC1(C)CCC(Cc2ccc(Cl)cc2)C1(O)Cn1cncn1 (stereo not drawn) 1 (yes)

Field: outcome | Entry: O=S(=O)(c1ccc(Cl)cc1)c1ccc(Cl)cc1 1 (yes)

Field: outcome | Entry: CC(=O)c1cc(C(C)(C)C)cc2c1CCC2(C)C 1 (yes)

Field: outcome | Entry: Nc1ccc(N=Nc2ccc(-c3ccc(N=Nc4c(S(=O)(=O)O)cc5cc(S(=O)(=O)O)c(N=Nc6ccccc6)c(O)c5c4N)cc3)cc2)c(N)c1 0 (no)
